Molecular target: Melanocyte-stimulating hormone receptor (Mus musculus) (UniProt Q01727)
Sequence (Q01727 whole entry, looked up): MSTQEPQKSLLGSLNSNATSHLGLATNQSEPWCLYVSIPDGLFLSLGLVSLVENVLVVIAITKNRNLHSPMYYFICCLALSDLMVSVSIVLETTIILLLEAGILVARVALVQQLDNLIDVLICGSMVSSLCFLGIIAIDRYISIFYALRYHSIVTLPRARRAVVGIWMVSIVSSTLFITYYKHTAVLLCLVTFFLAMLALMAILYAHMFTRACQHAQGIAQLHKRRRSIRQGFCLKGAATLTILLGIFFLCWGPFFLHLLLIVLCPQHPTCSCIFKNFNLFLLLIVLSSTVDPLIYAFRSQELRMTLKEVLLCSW
Experiment: Agonist activity at mouse MC1R at 100 uM by alphascreen cAMP assay relative to NDP-MSH
Assay type: functional
Settings: filed as partial agonist
Where a SMILES comes first, the peptide text is derived from it.
A collection of molecules and their measured Activity
Numeric answer only, unit % assumed.

// known answers, use as guide
- C[C@@H]1NC(=O)[C@H](CN)NC(=O)CN(Cc2ccccc2)C(=O)[C@H](Cc2ccccc2)NC(=O)[C@H](CCCNC(=N)N)NC(=O)[C@@H]2CCCN2C(=O)[C@H]2CCCN2C(=O)[C@H](Cc2ccccc2)NC1=O: 60
- C[C@@H]1NC(=O)[C@H](CC(N)=O)NC(=O)[C@H](Cc2ccccc2)NC(=O)[C@H](Cc2ccccc2)NC(=O)CN(CCCNC(=N)N)C(=O)[C@@H]2CCCN2C(=O)[C@H]2CCCN2C(=O)[C@H](Cc2ccccc2)NC1=O (HELM PEPTIDE1{P.[N=C(N)NCCCN(CC(=O)[*:2])[*:1]].F.F.N.A.F.[dP]}$PEPTIDE1,PEPTIDE1,1:R1-8:R2$$$V2.0): 50
- C[C@@H]1NC(=O)[C@H](CC(N)=O)NC(=O)CN(Cc2ccccc2)C(=O)[C@H](Cc2ccccc2)NC(=O)[C@H](CCCNC(=N)N)NC(=O)[C@@H]2CCCN2C(=O)[C@H]2CCCN2C(=O)[C@H](Cc2ccccc2)NC1=O: 70
- C[C@@H]1NC(=O)[C@H](CC(N)=O)NC(=O)[C@H](Cc2ccccc2)NC(=O)[C@H](Cc2ccccc2)NC(=O)[C@H](CCCNC(=N)N)NC(=O)[C@@H]2CCCN2C(=O)[C@H]2CCCN2C(=O)CN(Cc2ccccc2)C1=O: 85
- C[C@@H]1NC(=O)CN(CCN)C(=O)[C@H](Cc2ccccc2)NC(=O)[C@H](Cc2ccccc2)NC(=O)[C@H](CCCNC(=N)N)NC(=O)[C@@H]2CCCN2C(=O)[C@H]2CCCN2C(=O)[C@H](Cc2ccccc2)NC1=O: 60

// next entry
[ask] Provide Melanocyte-stimulating hormone receptor (Mus musculus) (UniProt Q01727) Activity reading for `C[C@@H]1NC(=O)[C@H](CN)NC(=O)[C@H](Cc2ccccc2)NC(=O)CN(Cc2ccccc2)C(=O)[C@H](CCCNC(=N)N)NC(=O)[C@@H]2CCCN2C(=O)[C@H]2CCCN2C(=O)[C@H](Cc2ccccc2)NC1=O` .
[reply] 80
